Tested on: human Factor 11 mRNA
method.notes: Dose-dependent inhibition of human Factor 11 in cyano primary hepatocytes, electroporation (Example 6)
Format: cell-based
experimental.parameters: 0.74 nM, ~16 hours
Hi, to clarify the labels: criterion met covers percent inhibition of human Factor 11 mRNA relative to untreated control cells from 5% upward, criterion not met covers anything below 5%.

| substance | qualitative.label |
| --- | --- |
| 416826 (antisense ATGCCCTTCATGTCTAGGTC; 5-10-5 gapmer, further chemistry not given here) [compound 416826] | criterion met |
| 416925 (antisense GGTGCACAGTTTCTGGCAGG; 3-14-3 gapmer chemistry, further chemistry not given here) [compound 416925] | criterion not met |
| 416858 (antisense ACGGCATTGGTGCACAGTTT; 5-10-5 gapmer, further chemistry not given here) [compound 416858] | criterion not met |
| 416892 (antisense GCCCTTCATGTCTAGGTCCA; 3-14-3 chimeric gapmer, further chemistry not given here) [compound 416892] | criterion met |
| 416999 (antisense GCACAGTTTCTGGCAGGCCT; 2-13-5 gapmer chemistry, further chemistry not given here) [compound 416999] | criterion not met |
| 416864 (antisense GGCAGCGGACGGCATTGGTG; 5-10-5 gapmer, further chemistry not given here) [compound 416864] | criterion not met |
| 416850 (antisense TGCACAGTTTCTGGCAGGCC; 5-10-5 gapmer, further chemistry not given here) [compound 416850] | criterion not met |
| 416838 (antisense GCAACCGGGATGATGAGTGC; 5-10-5 gapmer, further chemistry not given here) [compound 416838] | criterion not met |
| 417002 (antisense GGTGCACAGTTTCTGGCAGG; 2-13-5 gapmer chemistry, further chemistry not given here) [compound 417002] | criterion met |
| 417003 (antisense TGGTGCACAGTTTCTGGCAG; 2-13-5 gapmer chemistry, further chemistry not given here) [compound 417003] | criterion met |
